Every entry's value here was drawn from patent US8691753B2.

Target: MMP-9h (Homo sapiens (Human), UniProt P14780)
Sequence (P14780 94-707): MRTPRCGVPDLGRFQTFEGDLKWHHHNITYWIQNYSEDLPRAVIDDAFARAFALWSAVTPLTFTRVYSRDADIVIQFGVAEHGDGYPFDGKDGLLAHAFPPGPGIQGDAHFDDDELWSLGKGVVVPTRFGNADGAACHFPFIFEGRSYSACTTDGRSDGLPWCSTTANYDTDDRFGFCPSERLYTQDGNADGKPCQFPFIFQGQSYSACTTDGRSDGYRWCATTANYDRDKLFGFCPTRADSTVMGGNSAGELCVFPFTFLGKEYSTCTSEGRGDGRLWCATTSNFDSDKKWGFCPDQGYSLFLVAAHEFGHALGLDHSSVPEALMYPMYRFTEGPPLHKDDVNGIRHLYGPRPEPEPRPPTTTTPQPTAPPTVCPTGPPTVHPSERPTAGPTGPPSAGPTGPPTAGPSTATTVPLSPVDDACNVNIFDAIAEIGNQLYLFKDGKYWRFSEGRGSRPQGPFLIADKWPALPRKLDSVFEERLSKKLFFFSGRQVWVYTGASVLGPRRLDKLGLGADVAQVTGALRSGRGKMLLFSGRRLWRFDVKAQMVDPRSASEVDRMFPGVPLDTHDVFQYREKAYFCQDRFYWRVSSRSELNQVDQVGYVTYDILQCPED
Assay: Inhibition constant (Ki) on MMP-9h
Type: biochemical
Details: human MMP-9
Quantity kind: pKi
Entry type: numeric. Quantity: pKi, the -log10 of concentration in molar units.

NC(=O)[C@H](CCC(=O)O)NC(=O)[C@H](CCC(=O)O)NC(=O)CCc1ccc(-c2nc3ccccc3s2)cc1 [Compound 39] = 6.21

In the following, a different molecule is considered.
Find pKi (MMP-9h (Homo sapiens (Human), UniProt P14780)) for the entry NC(=O)[C@H](CCC(=O)O)NC(=O)[C@H](CCC(=O)O)NC(=O)CCc1ccc(-c2ccsc2)cc1 [Compound 38] 6.85

---

Biological target: MMP-3h (Homo sapiens (Human))
Sequence (P08254 100-477): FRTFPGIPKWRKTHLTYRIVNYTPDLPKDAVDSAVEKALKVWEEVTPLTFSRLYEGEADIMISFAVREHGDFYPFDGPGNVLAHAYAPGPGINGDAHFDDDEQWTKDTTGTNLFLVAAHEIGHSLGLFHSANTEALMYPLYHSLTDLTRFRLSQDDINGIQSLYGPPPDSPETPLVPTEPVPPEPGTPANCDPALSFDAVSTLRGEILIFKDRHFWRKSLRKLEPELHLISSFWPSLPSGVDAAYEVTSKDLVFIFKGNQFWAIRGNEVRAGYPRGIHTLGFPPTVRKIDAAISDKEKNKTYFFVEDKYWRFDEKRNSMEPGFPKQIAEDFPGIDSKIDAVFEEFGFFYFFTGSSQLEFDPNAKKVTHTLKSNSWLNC
Assay: Inhibition constant (Ki) on MMP-3h
Type: biochemical
Conditions: read-out: Ki MMP-3h; human MMP-3
Quantity kind: Ki

Identify the measured Ki of NC(=O)[C@H](CCC(=O)O)NC(=O)[C@H](CCC(=O)O)NC(=O)CCc1cc(-c2ccccc2)no1 for MMP-3h (Homo sapiens (Human)). > 10 µM

Report Ki for NC(=O)[C@H](CCC(=O)O)NC(=O)[C@H](CCC(=O)O)NC(=O)[C@H](Cc1cc(-c2ccc(-c3cccc(Cl)c3)cc2)no1)CP(=O)(O)c1ccc(Br)cc1 [RXP470, reference compound] tested on MMP-3h (Homo sapiens (Human)). 0.058 µM

For MMP-3h (Homo sapiens (Human)), provide Ki of NC(=O)[C@H](CCC(=O)O)NC(=O)[C@H](CCC(=O)O)NC(=O)CCc1ccc(-c2cccc(O)c2)cc1 please. > 10 µM

Given the entry NC(=O)CC[C@H](NC(=O)[C@H](CCC(=O)O)NC(=O)CCc1cc(-c2ccc(-c3ccccc3)cc2)no1)C(N)=O , what Ki was observed with MMP-3h (Homo sapiens (Human))? 0.105 µM

Entry NC(=O)[C@H](CC(=O)O)NC(=O)[C@H](CCC(=O)O)NC(=O)CCc1ccc(-c2cccs2)cc1 , system MMP-3h (Homo sapiens (Human)): what Ki was measured? > 10 µM

Identify the measured Ki of NC(=O)[C@H](CCC(=O)O)NC(=O)[C@H](CCC(=O)O)NC(=O)CCc1cn(-c2ccccc2)nn1 for MMP-3h (Homo sapiens (Human)). > 1 µM

Requested read-out Ki, target or system MMP-3h (Homo sapiens (Human)), entry NC(=O)CC[C@H](NC(=O)[C@H](CCC(=O)O)NC(=O)CCc1ccc(-c2cc(-c3ccccc3)cs2)cc1)C(N)=O > 10 µM

Request - read-out Ki | tested on MMP-3h (Homo sapiens (Human)) | compound O=C(O)CC[C@H](NC(=O)CCc1ccc(-c2cccs2)cc1)C(=O)Nc1cccc(CC(=O)O)c1 > 1 µM

I'm curious: which Ki was measured for Cc1csc(-c2ccc(CCC(=O)N[C@@H](CCC(=O)O)C(=O)N[C@@H](CCC(=O)O)C(N)=O)cc2)c1 tested on MMP-3h (Homo sapiens (Human))? > 1 µM

// map NC(=O)[C@H](CCCC(=O)O)NC(=O)[C@H](CCC(=O)O)NC(=O)CCc1ccc(-c2cc(-c3ccccc3)cs2)cc1 to recorded Ki (system: MMP-3h (Homo sapiens (Human))) > 5 µM

Which measured Ki belongs to O=C(O)CC[C@H](NC(=O)CCc1ccc(-c2ccccc2)cc1)C(=O)Nc1cccc(CC(=O)O)c1 , tested on MMP-3h (Homo sapiens (Human))? > 5 µM

Quick check: Ki on MMP-3h (Homo sapiens (Human)), item NC(=O)[C@H](Cc1c[nH]cn1)NC(=O)[C@H](CCC(=O)O)NC(=O)CCc1ccc(-c2ccccc2)cc1 ? > 10 µM

Could you share what Ki was measured for COc1cccc(-c2ccc(CCC(=O)N[C@@H](CCC(=O)O)C(=O)N[C@@H](CCC(=O)O)C(N)=O)cc2)c1 , tested on MMP-3h (Homo sapiens (Human))? > 10 µM

Missing value: Ki, MMP-3h (Homo sapiens (Human)), entry O=C(O)CC[C@H](NC(=O)CCc1ccc(-c2ccccc2)cc1)C(=O)N1CCC[C@@H](CC(=O)O)C1 . Fill in? > 10 µM

---

Biological target: UniProt P03956
Sequence (P03956 100-469): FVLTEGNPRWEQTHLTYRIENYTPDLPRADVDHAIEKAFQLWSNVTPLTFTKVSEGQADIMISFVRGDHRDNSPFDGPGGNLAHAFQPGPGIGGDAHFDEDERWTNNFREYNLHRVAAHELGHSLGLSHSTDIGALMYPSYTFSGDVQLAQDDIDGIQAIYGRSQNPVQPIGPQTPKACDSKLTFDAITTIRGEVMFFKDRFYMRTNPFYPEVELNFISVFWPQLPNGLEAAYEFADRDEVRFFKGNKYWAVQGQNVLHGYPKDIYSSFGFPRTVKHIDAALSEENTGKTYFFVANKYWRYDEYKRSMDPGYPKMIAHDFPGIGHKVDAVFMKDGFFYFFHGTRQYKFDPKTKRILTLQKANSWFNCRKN
Assay: Inhibition constant (Ki) on MMP-1h
Type: biochemical
Settings: read-out: Ki MMP-1h; human MMP-1
pKi: −log10 of the molar value.
Quantity kind: pKi

Consider the following illustrative entries.
O=C(O)CC[C@H](NC(=O)CCc1ccc(-c2cc(-c3ccccc3)cs2)cc1)C(=O)Nc1cccc(CC(=O)O)c1 = < 6.00
NC(=O)[C@H](CCC(=O)O)NC(=O)[C@H](CCC(=O)O)NC(=O)CCc1ccc(-c2cccs2)cc1 = < 4.00
NC(=O)[C@H](CCC(=O)O)NC(=O)[C@H](CCC(=O)O)NC(=O)CCc1ccc(-c2ccc(-c3ccccc3)cc2)cc1 = < 5.30
NC(=O)[C@H](CCC(=O)O)NC(=O)[C@H](CCC(=O)O)NC(=O)CCc1cc(-c2ccc(-c3cccc(Cl)c3)cc2)no1 = < 5.00
NC(=O)[C@H](CC(=O)O)NC(=O)[C@H](CCC(=O)O)NC(=O)CCc1ccc(-c2cc(-c3ccccc3)cs2)cc1 = < 4.00

So what does the record say about pKi for NC(=O)CC[C@H](NC(=O)[C@H](CCC(=O)O)NC(=O)CCc1ccc(-c2cc(-c3ccccc3)cs2)cc1)C(N)=O ? < 5.00

Recorded pKi of NC(=O)[C@H](CCC(=O)O)NC(=O)CCc1ccc(-c2cc(-c3ccccc3)cs2)cc1 , please. < 5.00

Requested read-out: pKi. Entry: NC(=O)[C@H](CCC(=O)O)NC(=O)[C@H](CCC(=O)O)NC(=O)CCc1cc(-c2ccccc2)no1 < 5.00

Reported pKi, compound NC(=O)[C@H](CCC(=O)O)NC(=O)[C@H](CCC(=O)O)NC(=O)[C@@H](CC(=O)O)Cc1ccc(-c2cc(-c3ccccc3)cs2)cc1 : ____ < 6.00

What value of pKi has been recorded for this entry: NC(=O)[C@H](CCCC(=O)O)NC(=O)[C@H](CCC(=O)O)NC(=O)CCc1ccc(-c2cc(-c3ccccc3)cs2)cc1 < 5.00

---

Molecular target: MMP-10h (Homo sapiens (Human))
Test: Inhibition constant (Ki) on MMP-10h
Type: biochemical
Conditions: read-out: Ki MMP-10h; human MMP-10
Ki strictly less than 80 nM = Y. Otherwise N.

See these solved cases before continuing.
NC(=O)[C@H](CCC(=O)O)NC(=O)[C@H](CCC(=O)O)NC(=O)CCc1ccc(-c2ccc(-c3nc4ccccc4s3)s2)cc1 = Y
NC(=O)[C@H](CCC(=O)O)NC(=O)[C@H](CCC(=O)O)NC(=O)CCc1cc(-c2ccc(-c3cccc(Cl)c3)cc2)no1 = Y
NC(=O)[C@H](CO)NC(=O)[C@H](CCC(=O)O)NC(=O)CCc1ccc(-c2cccs2)cc1 = N

Item O=C(O)CC[C@H](NC(=O)CCc1ccc(-c2ccc(-c3ccccc3)cc2)cc1)C(=O)Nc1cccc(CC(=O)O)c1 : Ki beneath 80 nM, strictly? Y

Bench note: check whether CC(C)C[C@H](NC(=O)[C@H](CCC(=O)O)NC(=O)CCc1ccc(-c2ccc(-c3ccccc3)cc2)cc1)C(N)=O shows Ki below 80 nM N

# strict comparison: is reported Ki < 80 nM? input = O=C(O)CC[C@H](NC(=O)CCc1ccc(-c2cccs2)cc1)C(=O)Nc1cccc(CC(=O)O)c1 N

---

Target: MMP-10h (Homo sapiens (Human), UniProt P09238)
Sequence (P09238 99-476): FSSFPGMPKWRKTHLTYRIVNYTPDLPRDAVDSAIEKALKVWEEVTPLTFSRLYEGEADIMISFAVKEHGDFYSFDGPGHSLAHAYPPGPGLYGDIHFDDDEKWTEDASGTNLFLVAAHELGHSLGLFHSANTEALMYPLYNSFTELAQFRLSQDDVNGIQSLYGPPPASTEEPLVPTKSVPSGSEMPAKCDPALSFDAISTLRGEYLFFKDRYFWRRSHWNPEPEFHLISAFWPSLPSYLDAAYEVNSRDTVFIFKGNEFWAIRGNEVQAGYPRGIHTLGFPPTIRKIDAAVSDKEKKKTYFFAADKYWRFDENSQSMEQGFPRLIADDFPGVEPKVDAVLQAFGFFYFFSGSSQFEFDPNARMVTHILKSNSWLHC
Assay: Inhibition constant (Ki) on MMP-10h
Type: biochemical
Settings: read-out: Ki MMP-10h; human MMP-10
Quantity kind: pKi
Note: pKi values are expressed as the negative base-10 logarithm of concentration in M.

NC(=O)[C@H](CCC(=O)O)NC(=O)[C@@H](CCC(=O)O)NC(=O)CCc1cc(-c2ccc(-c3cccc(Cl)c3)cc2)no1 = 6.31

Okay, next one:
Param readout = pKi; param system = MMP-10h (Homo sapiens (Human), UniProt P09238); param query = NC(=O)[C@H](CC(=O)O)NC(=O)[C@H](CC(=O)O)NC(=O)CCc1cc(-c2ccc(-c3ccccc3)cc2)no1 ; response: value 6.28

---

Target: MMP-8h (Homo sapiens (Human), UniProt P22894)
Sequence (P22894 101-467): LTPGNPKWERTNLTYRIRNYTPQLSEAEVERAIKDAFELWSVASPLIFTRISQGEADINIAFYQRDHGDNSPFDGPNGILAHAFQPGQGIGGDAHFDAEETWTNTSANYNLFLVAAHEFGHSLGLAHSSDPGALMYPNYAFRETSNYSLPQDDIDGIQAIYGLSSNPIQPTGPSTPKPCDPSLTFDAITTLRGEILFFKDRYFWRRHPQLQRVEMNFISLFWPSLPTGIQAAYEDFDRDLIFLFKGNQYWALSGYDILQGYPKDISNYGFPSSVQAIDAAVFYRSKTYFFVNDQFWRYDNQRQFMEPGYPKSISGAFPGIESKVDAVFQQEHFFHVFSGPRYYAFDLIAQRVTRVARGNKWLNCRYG
Test: Inhibition constant (Ki) on MMP-8h
Format: biochemical
Conditions: read-out: Ki MMP-8h; human MMP-8
pKi values by entry
Reminder that pKi is minus the log10 of a molar concentration.

NC(=O)[C@H](CCC(=O)O)NC(=O)[C@H](CC(=O)O)NC(=O)CCc1ccc(-c2ccc(-c3ccccc3)cc2)cc1 = 6.06
NC(=O)[C@H](CCC(=O)O)NC(=O)[C@H](CCC(=O)O)NC(=O)[C@@H](CC(=O)O)Cc1ccc(-c2cc(-c3ccccc3)cs2)cc1 = 6.28
NC(=O)[C@@H](CCC(=O)O)NC(=O)[C@H](CCC(=O)O)NC(=O)CCc1cc(-c2ccc(-c3cccc(Cl)c3)cc2)no1 = 6.26
CC(C)C[C@H](NC(=O)[C@H](CCC(=O)O)NC(=O)CCc1ccc(-c2ccc(-c3ccccc3)cc2)cc1)C(N)=O = 6.25
NC(=O)[C@H](CO)NC(=O)[C@H](CCC(=O)O)NC(=O)CCc1ccc(-c2ccc(-c3ccccc3)cc2)cc1 = 6.64

State the recorded pKi for this entry: O=C(O)CC[C@H](NC(=O)CCc1ccc(-c2ccc(-c3ccccc3)cc2)cc1)C(=O)N1CCC[C@@H](CC(=O)O)C1 6.98

Requested read-out: pKi. Entry: NC(=O)[C@H](CCC(=O)O)NC(=O)[C@H](CCC(=O)O)NC(=O)CCc1ccc(-c2ccc(-c3nc4ccccc4s3)s2)cc1 6.51

Requested field: pKi. Item: NC(=O)[C@H](CCC(=O)O)NC(=O)[C@H](CCC(=O)O)NC(=O)CCc1ccc(-c2cccc(CO)c2)cc1 6.09

GET /values?readout=pKi&item= NC(=O)[C@H](CC(=O)O)NC(=O)[C@H](CCC(=O)O)NC(=O)CCc1cc(-c2ccc(-c3cccc(Cl)c3)cc2)no1 6.25
